Tested on: ORYSAT (Rice, Tebonnet)
measurement protocol: Preemergence herbicidal evaluation
Assay type: in vivo, Oryza sativa, (L.) Tebonnet
condition description: rate 0.2500 kg/ha; rated 4-5 weeks after treatment
Cut-off 2 on Preemergence herbicidal rating ORYSAT, inclusive. At or above means class 1; below means class 0.

The following compounds have reported results that may help.
>  <compound>
Cn1c(C(F)(F)F)cc(=O)n(-c2cc(N=C3SCC(=O)N3[C@H](Cc3ccccc3)C(=O)O)c(Cl)cc2F)c1=O

>  <label>
class 0

$$$$
>  <compound>
CCOC(=O)CCN1C(=O)CSC1=Nc1cc(-n2c(=O)cc(C(F)(F)F)n(C)c2=O)c(Cl)cc1Cl

>  <label>
class 0

$$$$
>  <compound>
Cn1c(C(F)(F)F)cc(=O)n(-c2cc(N=C3SCC(=O)N3CC(=O)OCC3CC3)c(Cl)cc2F)c1=O

>  <label>
class 0

$$$$

Problem: Answer whether Preemergence herbicidal rating ORYSAT of CCOC(=O)CN1C(=O)C(SC)SC1=Nc1cc(-n2c(=O)cc(C(F)(F)F)n(C)c2=O)c(F)cc1Cl (stereo not shown) is greater than or equal to 2.
Solution: class 1

Problem: Answer whether Preemergence herbicidal rating ORYSAT of CCOC(=O)CN1C(=O)C(Cl)SC1=Nc1cc(-n2c(=O)cc(C(F)(F)F)n(C)c2=O)c(F)cc1Cl (stereo not shown) is greater than or equal to 2.
Solution: class 0

Problem: Answer whether Preemergence herbicidal rating ORYSAT of C#CCOC(=O)CC1SC(=Nc2cc(-n3c(=O)cc(C(F)(F)F)n(C)c3=O)c(F)cc2Cl)N(CC(=O)OCC)C1=O (stereo not shown) is greater than or equal to 2.
Solution: class 1

----------
Catalogue of ECHCG rating values
System: ECHCG (Barnyardgrass)
measurement protocol: Preemergence herbicidal evaluation
Format: in vivo, Echinochloa crus-galli
condition description: preemergence, 0.0313 kg/ha, rated 4-5 weeks after treatment, 0-9 scale
Keep the answer to the number alone.

>  <compound>
C=CCN1C(=O)C(CC(N)=O)SC1=Nc1cc(-n2c(=O)cc(C(F)(F)F)n(C)c2=O)c(F)cc1Cl (stereo not shown)

>  <readout number>
0.0

$$$$
>  <compound>
CCOC(=O)CN1C(=O)C(CC(=O)NS(=O)(=O)CC)SC1=Nc1cc(-n2c(=O)cc(C(F)(F)F)n(C)c2=O)c(F)cc1Cl (stereo not shown)

>  <readout number>
0.0

$$$$
>  <compound>
C=CCN1C(=O)C(CC(=O)NOC)SC1=Nc1cc(-n2c(=O)cc(C(F)(F)F)n(C)c2=O)c(F)cc1Cl (stereo not shown)

>  <readout number>
0.0

$$$$

Consider now this further compound.
Problem: Request the reported ECHCG rating associated with C=CCOC(=O)CN1C(=O)CSC1=Nc1cc(-n2c(=O)cc(C(F)(F)F)n(C)c2=O)c(F)cc1Cl
Solution: 1.0

----------
System: ECHCG (Barnyardgrass)
measurement protocol: Preemergence herbicidal evaluation
Assay type: in vivo, Echinochloa crus-galli
condition description: rate 0.0625 kg/ha; rated 4-5 weeks after treatment
Source text: Results of herbicide evaluation are expressed on a rating scale (0-9). The scale is based upon a visual observation of plant stand, vigor, malformation, size, chlorosis and overall plant appearance as compared with a control. […] The compounds evaluated are reported by compound number given in Example 37.
recorded metric: ECHCG preemergence herbicidal rating
Keep the answer to the number alone.

>  <compound>
CCC1SC(=Nc2cc(-n3c(=O)cc(C(F)(F)F)n(C)c3=O)c(F)cc2Cl)N(C)C1=O (centres unmarked) [Compound 10]

>  <test target>
ECHCG (Barnyardgrass)

>  <readout number>
7.0

$$$$

Problem: Write down the reported ECHCG preemergence herbicidal rating of CN1C(=O)CSC1=Nc1cc(N2C(=O)C3=C(CCCC3)C2=O)c(F)cc1Cl [Compound 1] , test system: ECHCG (Barnyardgrass).
Solution: 5.0

Problem: Write down the reported ECHCG preemergence herbicidal rating of CC1SC(=Nc2cc(-n3c(=O)cc(C(F)(F)F)n(C)c3=O)c(F)cc2Cl)N(C)C1=O (centres unmarked) [Compound 9] , test system: ECHCG (Barnyardgrass).
Solution: 8.7

Problem: Write down the reported ECHCG preemergence herbicidal rating of O=C1CSC(=Nc2cc(N3C(=O)C4=C(CCCC4)C3=O)c(F)cc2Cl)N1c1ccccc1 [Compound 3] , test system: ECHCG (Barnyardgrass).
Solution: 0.0

Problem: Write down the reported ECHCG preemergence herbicidal rating of CCOC(=O)CN1C(=O)C(F)SC1=Nc1cc(-n2c(=O)cc(C(F)(F)F)n(C)c2=O)c(F)cc1Cl (centres unmarked) [Compound 11] , test system: ECHCG (Barnyardgrass).
Solution: 0.0
